# testedTarget: Troponin I, cardiac muscle (Homo sapiens) + Troponin T, cardiac muscle (Homo sapiens) + Troponin C, slow skeletal and cardiac muscles (Homo sapiens) (UniProt P19429+P45379+P63316)
# assayProtocol: cardiac RTF calcium sensitivity activators, confirmation, biochemical, IANBD-TnC fluorescence, triplicate (AID 504383)
# testContext: IANBD-labeled cardiac RTF, Ca2+ sensitivity fluorescence; at 7.2 µM; scaled from EC20 to saturating calcium; tested at EC20 calcium, 0.472 mM
The campaign covered roughly 2,500 compounds. About 1,200 (48%) were called active.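 How the source made its calls: active means mean activation above the low control average plus 3 SD, as set in the primary screen (cut at about 12% in these data); inactive means the rest.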 So high a share suggests a set chosen from earlier hits. This is one part of the list.
Classes to choose from: true for active, false for inactive

Exam item: So what was the verdict on CN(C)c1ccc(/C=C2\SC(=S)N(Nc3ncc(C(F)(F)F)cc3Cl)C2=O)cc1 in this test?
Marked response: false

Exam item: So what was the verdict on Cc1ccc(NC(=O)COC(=O)/C=C/c2c(C)nn(-c3ccc(F)cc3)c2Cl)cc1F in this test?
Marked response: false

Exam item: So what was the verdict on COc1cc(OC)c(OC)cc1/C=C1\Oc2cc(OCC(=O)N3Cc4ccccc4C[C@H]3C(=O)O)ccc2C1=O in this test?
Marked response: false

Exam item: So what was the verdict on Cc1cccc(N2C(=O)c3cccc4c(N)ccc(c34)C2=O)c1 in this test?
Marked response: false

Exam item: So what was the verdict on COc1ccc(/C=C2\Oc3cc(OCC(=O)N4CCC(C(=O)O)CC4)ccc3C2=O)c(OC)c1 in this test?
Marked response: true

Exam item: So what was the verdict on COc1ccc(Cc2n[nH]c(=O)c3ccccc23)cc1OC in this test?
Marked response: false

Exam item: So what was the verdict on O=C(NCc1nnc(SCC(=O)N2CCCCCC2)o1)c1ccco1 in this test?
Marked response: true

Exam item: So what was the verdict on O=C(CCN1C(=O)/C(=C/c2cccs2)SC1=S)NNC(=O)c1cccc(O)c1 in this test?
Marked response: false

Exam item: So what was the verdict on N#CC(C#N)=C1C=C2C=C(N3CCCCCC3)CCC2CC1 (stereo not drawn) in this test?
Marked response: false

Exam item: So what was the verdict on Cc1ccc(NC(=O)COC(=O)c2csc3c2CCC(C)C3)cc1S(=O)(=O)N1CCCCC1 (stereo not drawn) in this test?
Marked response: false

Exam item: So what was the verdict on COc1ccc(CCNc2cc(C)[nH]c(=O)c2)cc1OC in this test?
Marked response: false

Exam item: So what was the verdict on Cc1ccc(S(=O)(=O)N2CCOCC2)cc1NC(=O)CSc1nccn1C in this test?
Marked response: false

Exam item: So what was the verdict on CC1=CC(=C(C#N)C#N)C=C(C)N1Cc1ccc(Cl)cc1 in this test?
Marked response: true

Exam item: So what was the verdict on COC(=O)[C@H](Cc1ccccc1)NC(=O)Nc1ccc(OC)cc1 in this test?
Marked response: false

Exam item: So what was the verdict on COc1cccc(/C=N/c2nc3ccccc3[nH]2)c1O in this test?
Marked response: false

Exam item: So what was the verdict on COc1cc(/C=C2\SC(=Nc3ccccc3)NC2=O)cc(Cl)c1O in this test?
Marked response: false

Exam item: So what was the verdict on Cc1cc(NC(=O)COC(=O)C(Cc2ccccc2)NC(=O)c2ccco2)no1 (stereo not drawn) in this test?
Marked response: true

Exam item: So what was the verdict on Oc1ccc(-c2c(C3=CCCCC3)sc3ccccc23)cc1 in this test?
Marked response: true

Exam item: So what was the verdict on Cc1cc(C=C2C(=O)c3ccccc3C2=O)c(C)n1-c1ccccc1 in this test?
Marked response: true

Exam item: So what was the verdict on COc1ccc(CNC(=O)c2sc(=S)n(-c3ccccc3)c2N)cc1 in this test?
Marked response: true

Exam item: So what was the verdict on Cc1cc(C=C2C(=O)CCCC2=O)c(C)n1-c1ccccc1 in this test?
Marked response: false

Exam item: So what was the verdict on COc1ccc(/C=C2\Oc3cc(OCC(=O)N4CCC[C@H]4CO)ccc3C2=O)c(OC)c1 in this test?
Marked response: true

Exam item: So what was the verdict on O=C(O)C1CC(O)CN1C(=O)c1ccco1 (stereo not drawn) in this test?
Marked response: false

Exam item: So what was the verdict on CC(=O)NN1C(=O)/C(=C\c2ccc(O)cc2)SC1=S in this test?
Marked response: true

Exam item: So what was the verdict on O=C(CNCc1cccs1)Nc1cc(S(=O)(=O)N2CCCC2)ccc1Cl in this test?
Marked response: true

Exam item: So what was the verdict on CN1CCN(C(=O)c2cc3ccccc3[nH]2)CC1 in this test?
Marked response: false

Exam item: So what was the verdict on NC(=O)NC(Cc1ccccc1)C(=O)NCC1(N2CCCCC2)CCCCC1 (stereo not drawn) in this test?
Marked response: false

Exam item: So what was the verdict on CC(/C=C/c1ccc(N(C)C)cc1)=N/N=C1/NC(=O)CC(C(=O)Nc2ccc(Cl)cc2)S1 (stereo not drawn) in this test?
Marked response: true

Exam item: So what was the verdict on O=C(NN1C(=O)/C(=C/c2ccc(O)cc2)SC1=S)c1ccccc1O in this test?
Marked response: false

Exam item: So what was the verdict on Cc1ccnc(N2C(=O)c3cccc4c([N+](=O)[O-])ccc(c34)C2=O)c1 in this test?
Marked response: true

Exam item: So what was the verdict on COc1ccccc1NS(=O)(=O)c1cc(C(=O)NCCN2CCOCC2)ccc1Cl in this test?
Marked response: false

Exam item: So what was the verdict on COc1ccccc1/C=C/CN1CCC(CO)(Cc2ccccc2)CC1 in this test?
Marked response: false

Exam item: So what was the verdict on CC1CCN(c2ccc3c(c2)S(=O)(=O)c2ccccc2C3=O)CC1 in this test?
Marked response: false

Exam item: So what was the verdict on COc1ccc(CNc2nn[nH]n2)cc1OC in this test?
Marked response: true

Exam item: So what was the verdict on COc1ccc2[nH]c(C(=O)N3CCC(Cc4ccccc4)CC3)cc2c1 in this test?
Marked response: true

Exam item: So what was the verdict on COc1ccc(-c2nc(/C=C3\C(C)=Nc4ccccc43)c(O)o2)cc1 in this test?
Marked response: true

Exam item: So what was the verdict on CCOc1ccc(-c2ncncc2-c2ccccc2OC)c(O)c1 in this test?
Marked response: false

Exam item: So what was the verdict on COc1ccc(/C=C2\Oc3cc(OC(=O)N4CCOCC4)ccc3C2=O)c(OC)c1 in this test?
Marked response: true
